Where these numbers come from: the supplement of paper PMC10567573

B1: SMTNL2 (parent)
chain: ETAAGKGKGEARARLKRSQSFGVA

Variants of: B1
measurement notes: protein stability index of a GFP-peptide fusion (GPS, HEK-293T) (PSI 1-6); higher = more stable;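 also: lentivirally expressed fusions sorted by FACS into six bins by GFP to DsRed ratio, PSI derived from sequencing read proportions per bin multiplied by bin number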
recorded conditions: c terminus: a fixed tail appended
measure: protein stability index
Response field accepts a number only; no unit should be typed.

[
  {
    "mut": "A4W",
    "protein stability index": 3.98
  },
  {
    "mut": "G22I",
    "protein stability index": 3.9
  }
]

Now for another entry.
Please give the measured protein stability index for this variant: "A24F"
3.97
